- Study Target: HLA-Cw6/ADAMTSL5-Abu on rhHLA-Cw6 expressing cells loaded with ADAM-Abu peptide (human), P10321
- Assay Text: cell-based or functional assay
Property: IL-2 % Inhibition (8.5 nM mAb), HLA-Cw6-00290 (%)
Numbers only, in %.

# Binder, Value Reported
records = [
    ("CW6B228 (antibody, V domains shown) VH: QVQLQESGPGLVKPSETLSLTCTVSGNSIRSYYWSWIRQPAGKGLEWIGRIYISGNTNYNPSLKSRVTMSIDTSKNQFSLKLSSVTAADTAVYYCARLSGIDAFDIWGQGTMVTVSS VL: DIQMTQSPSSLSASVGDRVTITCQASQDINNYLNWYQQKPGKAPKLLIYDASSLETGVPSRFSGSGSGTDFTFTISSLQPEDFATYYCQQYDDLPITFGQGTRLEIK", 100),
    ("CW6B229 (antibody, V domains shown) VH: QVQLQESGPGLVKPSETLSLTCTVSGNSIRSYYWSWIRQPAGKGLEWIGRIYISGNTNYNPSLKSRVTMSIDTSKNQFSLKLSSVTAADTAVFYCARLSGIDAFDIWGQGTMVTVSS VL: DIQMTQSPSSLSASVGDRVTITCQASQDISNYLNWYQQKPGKAPKLLIYDASNLETGVPSRFSGSGSGTDFTFTISSLQPEDFATYYCQQYDNLPITFGQGTRLEIK", 86),
]

Now look at this entry.
Exam item: What value of IL-2 % Inhibition (8.5 nM mAb), HLA-Cw6-00290 has been reported for the following binder? CW6B230 (antibody, V domains shown) VH: QVQLQESGPGLVKPSETLSLTCTVSGNSISNYYWSWIRQPAGKGLEWIGRIYITGNTNYNPSLKSRVTMSLDTSKNQFSLKLSSVTAADTAVYYCARLSGIDAFDIWGQGTMVTVSS VL: DIQMTQSPSTLSASVGDRVTFTCQASQDITKYLNWYQQKPGKAPKLLIYDASNLETGVPSRFSGSGSGTDFTFTISSLQPEDFATYYCQQYDDLPITFGQGTRLEIK
Marked response: 93
